test: Hemolytic activity at horse Erythrocyte assessed as hemolysis; assay type: toxicity, cell-based, Equus caballus; conditions: horse erythrocytes
Measured endpoint: HC50 (µg/mL)
Numbers only, in µg/mL.

The cases that follow already have their HC50 on record.
Ac-AARILSRILRFALRVL-NH2: 34.2
Ac-AARILSRILRGALRVL-NH2: 403
Ac-AARIFSRILRGALRVL-NH2: 179
Ac-AARILSRILFGALRVL-NH2: 51.7
Ac-AARILSRILRFFLRVL-NH2: 13.4
Ac-AARILSRILSGALRVL-NH2: 161

Batch: HC50 for all items listed.
1. Ac-AAKILSKILKGALKVL-NH2
2. Ac-AARILSRILRRALRVL-NH2
3. Ac-AARIFSRILFGALRVL-NH2

Response:
[442, 155, 110]

* * *

experiment: Hemolytic activity at mouse Red blood cell assessed as hemolysis; assay type: toxicity, cell-based; settings: erythrocyte
Measured endpoint: log10(MHC) (log10 of the value in µg/mL)
Reminder: these figures are log10 of reported MHC, in µg/mL before transformation.

The cases that follow already have their log10(MHC) on record.
Ac-AARILSRILRFFLRVL-NH2: 1.13
Ac-AARILSRILRFALRVL-NH2: 1.53
Ac-AARILSRILRGALRVL-NH2: 2.61
Ac-AARIFSRILRGALRVL-NH2: 2.25

Batch: log10(MHC) for all items listed.
1. Ac-AARILSRILRRALRVL-NH2
2. Ac-AARIFSRILFGALRVL-NH2
3. Ac-AARILSRILFGALRVL-NH2
4. Ac-AAKILSKILKGALKVL-NH2
5. Ac-AARILSRILSGALRVL-NH2

Response:
[2.19, 2.04, 1.71, 2.65, 2.21]

* * *

I'd appreciate it if you could supply MIC values for the items below.
tested on: Escherichia coli; assay: Antibacterial activity against Escherichia coli NCTC 10418 incubated for 16 hrs under shaking condition by standard broth microdilution method; format: functional

Batch: MIC for all items listed.
1. Ac-AARIPSRILRGALRVL-NH2
2. Ac-AARIPSRILFGALRVL-NH2
3. Ac-AARILSRILFGALRVL-NH2
4. Ac-AARIFSRILRGALRVL-NH2
5. Ac-AARILSRILRFFLRVL-NH2
6. Ac-AARILSRILSGALRVL-NH2
7. Ac-AAKILSKILKGALKVL-NH2
8. Ac-AARILSRILRFALRVL-NH2

Response:
1: 16 µg/mL; 2: 64 µg/mL; 3: 32 µg/mL; 4: 8 µg/mL; 5: 256 µg/mL; 6: 16 µg/mL; 7: 8 µg/mL; 8: > 512 µg/mL

Batch: MIC for all items listed.
1. Ac-AARILSRILRGALRVL-NH2
2. Ac-AARIPSRILKGALRVL-NH2
3. Ac-AARIPSRILFRALRVL-NH2
4. Ac-AARIPSRILFFALVRL-NH2
5. Ac-AARILSRILRRALRVL-NH2
6. Ac-AARIFSRILFGALRVL-NH2

Response:
1: 32 µg/mL; 2: 128 µg/mL; 3: 32 µg/mL; 4: 64 µg/mL; 5: 4 µg/mL; 6: 32 µg/mL

Values were extracted from ChEMBL document CHEMBL6134824.
